# Measured Target: 5-HT1A receptors (Bos taurus)
# Sequence (F6Q2H9 1-422): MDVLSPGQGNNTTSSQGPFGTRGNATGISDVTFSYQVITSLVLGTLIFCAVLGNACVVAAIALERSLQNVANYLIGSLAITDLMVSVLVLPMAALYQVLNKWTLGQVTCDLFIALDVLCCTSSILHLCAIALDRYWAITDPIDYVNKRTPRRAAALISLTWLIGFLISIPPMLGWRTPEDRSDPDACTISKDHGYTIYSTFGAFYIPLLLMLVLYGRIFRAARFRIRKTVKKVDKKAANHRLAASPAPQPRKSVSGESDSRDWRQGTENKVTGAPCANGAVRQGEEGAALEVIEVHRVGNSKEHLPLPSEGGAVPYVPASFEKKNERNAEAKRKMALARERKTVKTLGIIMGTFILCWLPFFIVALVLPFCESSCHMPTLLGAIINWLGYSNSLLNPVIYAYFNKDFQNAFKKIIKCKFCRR
Reported Endpoint: Ki (nM)
Numbers only, in nM.

Exercise: Quick check: Ki of CC(C)(Cl)COc1cccc2c1OC(CNCCCCN1C(=O)c3ccccc3S1(=O)=O)CC2 (single isomer, unassigned) [Example 3] ?
Solution: 1.8
